Test: qHTS assay for MDR1-selective chemotherapeutics: Primary screen using the drug-selected MDR subline cells KB-V1; also: nearly all actives have a fitted effect of over 60% in size
Conditions: KB-V1 MDR cells viability, CellTiter-Glo, 72 h; series mostly up to 46.1 µM
The whole screen tested about 400,000 compounds, of which about 13,000 (3.2%) were called active. Not shown: some 18% with an inconclusive outcome. Calls follow the shape of the dose curve; as a rule, active = well fitted cell-killing curve with a large enough effect; inconclusive = small, poorly fitted or top-dose-only effect, or effect the other way; inactive = flat fitted curve, though single readings scatter. This is one part of a sample in which actives are shown more often than they occur.
The reply should name one outcome from yes for active, no for inactive

For orientation, consider the following solved cases.
COc1ccccc1N=Cc1c(O)c2ccccc2oc1=O = no
COc1cc(N=Cc2c(O)[nH]c3ccccc23)cc(OC)c1OC = yes
Cc1cccc(C(=O)OCC(=O)Nc2sc3c(c2C#N)CCC3)c1 = no
NC(=O)c1c(NC(=O)CSc2nnc(-c3ccco3)n2N)sc2c1CCCC2 = no
CN(C)S(=O)(=O)c1cccc(NC(=O)Cc2ccsc2)c1 = no

Now turn to the next molecule.
Prompt: For this molecule, state the assay outcome: `COC(=O)c1cc(NC(=O)CCS(=O)(=O)c2cc(Br)cc3c2N(C(=O)C2CC2)CC3)cc(C(=O)OC)c1`
Completion: no

----------
Test: qHTS assay for MDR1-selective chemotherapeutics: Primary screen using the drug-selected MDR subline cells KB-V1; also: nearly all actives have a fitted effect of over 60% in size
Conditions: KB-V1 MDR cells viability, CellTiter-Glo, 72 h; series mostly up to 46.1 µM
Hit rate of the full screen: of about 400,000 compounds, about 13,000 (3.2%) were called active. About 18% were inconclusive and are not listed. Calls follow the shape of the dose curve; as a rule, active = well fitted cell-killing curve with a large enough effect; inconclusive = small, poorly fitted or top-dose-only effect, or effect the other way; inactive = flat fitted curve, though single readings scatter. Only a selection was taken, and actives are over-represented in it overall.
The reply should name one outcome from active, inactive

CC(=O)c1ccc(-c2cnc3c(NC=O)cc(-c4cccc(NS(C)(=O)=O)c4)cn23)cc1 = inactive
CNc1nccc(-c2ccc(Cl)cc2)c1C#N = active
O=C(Nc1ccccn1)c1sc2ccc([N+](=O)[O-])cc2c1Cl = inactive
Cn1nc(C(F)(F)F)c(C(=O)Nc2cccc(C(F)(F)F)c2)c1SCc1ccc(Cl)cc1 = active
Cc1ccc(C(O)c2ncc(-c3ccccc3F)[nH]2)cc1F (stereo not given) = inactive

Prompt: For this compound, state the assay outcome: `CN(C)CCNC(=O)c1cccc(-c2cnc3c(NC=O)cc(-c4cccc(C(F)(F)F)c4)cn23)c1`
Completion: active

Prompt: For this compound, state the assay outcome: `O=C1CCC(C(=O)OCC(=O)Nc2ccc(OC(F)F)cc2)=NN1`
Completion: inactive

Prompt: For this compound, state the assay outcome: `Cc1cc(C)c2cc(C#N)c(N3CCNCC3)nc2c1`
Completion: inactive

Prompt: For this compound, state the assay outcome: `O=C(NCc1cccc(C(F)(F)F)c1)c1ccc2sc(COCCO)nc2c1`
Completion: inactive

Prompt: For this compound, state the assay outcome: `CC(=O)c1c(Nc2ccccc2)sc(C(=O)c2ccccc2)c1C`
Completion: active

----------
Assay: qHTS assay for MDR1-selective chemotherapeutics: Primary screen using the drug-selected MDR subline cells KB-V1; also: nearly all actives have a fitted effect of over 60% in size
Conditions: KB-V1 MDR cells viability, CellTiter-Glo, 72 h; series mostly up to 46.1 µM
The whole screen tested about 400,000 compounds, of which about 13,000 (3.2%) were called active. Inconclusive results (about 18%) are left out. Calls come from the whole dose curve; as a rule, active = well fitted cell-killing curve with a large enough effect; inconclusive = small, poorly fitted or top-dose-only effect, or effect the other way; inactive = flat fitted curve, though single readings scatter. The sample holds actives, similar compounds and a random draw of the others, so the mix is not that of the screen.
The reply should name one outcome from active, inactive

Prompt: For this molecule, state the assay outcome: `CCC(=O)Nc1c(S(=O)(=O)c2ccccc2)c2nc3ccccc3nc2n1Cc1ccccc1`
Completion: active

Prompt: For this molecule, state the assay outcome: COc1ccc2nc(N3CCCC(O)C3)c(C#N)cc2c1 (stereo unspecified)
Completion: inactive

Prompt: For this molecule, state the assay outcome: `CCN(c1ccccc1)S(=O)(=O)c1ccc(C(=O)Nc2ccccc2OC)cc1`
Completion: inactive

----------
Assay: qHTS assay for MDR1-selective chemotherapeutics: Primary screen using the drug-selected MDR subline cells KB-V1; also: nearly all actives have a fitted effect of over 60% in size
Conditions: KB-V1 MDR cells viability, CellTiter-Glo, 72 h; series mostly up to 46.1 µM
Among all 400,000 compounds or so, about 13,000 (3.2%) were called active. Inconclusive results (about 18%) are left out. Calls come from the whole dose curve; as a rule, active = well fitted cell-killing curve with a large enough effect; inconclusive = small, poorly fitted or top-dose-only effect, or effect the other way; inactive = flat fitted curve, though single readings scatter. This is one part of a sample in which actives are shown more often than they occur.
The reply should name one outcome from label 1 for active, label 0 for inactive

O=C(C1CCN(S(=O)(=O)c2ccc(Br)s2)CC1)N1CCN(c2ccccc2)CC1 = label 0
Cc1cccc(NC(=O)CN2CCCN(S(=O)(=O)c3ccc(Br)s3)CC2)c1 = label 0
NC(=O)Cn1cc(/C=N\NS(=O)(=O)c2ccccc2)c2ccccc21 = label 0
OC(c1ccccc1)c1nc(/C=C/c2ccc(C(F)(F)F)cc2)cs1 (stereo unspecified) = label 0
CCS(=O)(=O)c1nc(S(=O)(=O)c2ccc(C)cc2)c(NCc2ccc(Cl)cc2)s1 = label 0
CS(=O)(=O)c1ccc2nc(NC(=O)c3ccc(Cl)nc3)sc2c1 = label 0
Cc1csc(SCC(=O)Nc2ccc(C)c(S(=O)(=O)N(C)C)c2)n1 = label 0
O=C(Nc1ccc2c(c1)CCC2)c1cccc(S(=O)(=O)N2CCN(c3ccc(F)cc3)CC2)c1 = label 0

Prompt: For this compound, state the assay outcome: `O=C(c1ccc(Oc2ccc(Cl)cc2)c([N+](=O)[O-])c1)N1CCCC1`
Completion: label 0

Prompt: For this compound, state the assay outcome: `CCCCN(C=O)c1c(CC)nc2c(OCCC3CCCCC3)cccn12`
Completion: label 0

Prompt: For this compound, state the assay outcome: `O=C(NN=Cc1ccc2c(c1)CCC2)c1ccccc1O`
Completion: label 0

Prompt: For this compound, state the assay outcome: `COc1cccc(C(=O)Nc2nc3ccc(S(C)(=O)=O)cc3s2)c1`
Completion: label 0

Prompt: For this compound, state the assay outcome: CN(C)C1=C2C=CC=CC2/C(=C2/C=Cc3ccccc32)C=C1 (stereo unspecified)
Completion: label 0

Prompt: For this compound, state the assay outcome: `CCc1cccc(NC(=O)Cn2nc(CC)n3c(cc4cc(C)ccc43)c2=O)c1`
Completion: label 0

Prompt: For this compound, state the assay outcome: `COc1ccc(OCCn2cc(C(=O)C3CCCCC3)c3ccccc32)cc1`
Completion: label 0

----------
Experiment: qHTS assay for MDR1-selective chemotherapeutics: Primary screen using the drug-selected MDR subline cells KB-V1; also: nearly all actives have a fitted effect of over 60% in size
Details: KB-V1 MDR cells viability, CellTiter-Glo, 72 h; series mostly up to 46.1 µM
Out of some 400,000 compounds screened, about 13,000 (3.2%) were called active. Inconclusive results (about 18%) are left out. Calls come from the whole dose curve; as a rule, active = well fitted cell-killing curve with a large enough effect; inconclusive = small, poorly fitted or top-dose-only effect, or effect the other way; inactive = flat fitted curve, though single readings scatter. The sample as a whole holds a higher share of actives than the screen did.
The reply should name one outcome from active, inactive

Prompt: For this compound, state the assay outcome: Cc1cccc(-c2cnc(C(O)c3cc(C)cc(C)c3)[nH]2)c1 (configuration not stated)
Completion: inactive

Prompt: For this compound, state the assay outcome: O=C(OCc1ccccc1)N1CCC2CC1c1ccc(-c3ccc4c(c3)OCO4)cc12 (configuration not stated)
Completion: inactive

Prompt: For this compound, state the assay outcome: `CO[C@@H]1CN(C)C(=O)c2cc(NC(=O)C3CC3)ccc2OC[C@H](C)N(C(=O)CN2CCOCC2)C[C@@H]1C`
Completion: inactive

----------
Assay: qHTS assay for MDR1-selective chemotherapeutics: Primary screen using the drug-selected MDR subline cells KB-V1; also: nearly all actives have a fitted effect of over 60% in size
Conditions: KB-V1 MDR cells viability, CellTiter-Glo, 72 h; series mostly up to 46.1 µM
In all, about 400,000 compounds went through this assay and about 13,000 (3.2%) were called active. About 18% were inconclusive and are not listed. Calls come from the whole dose curve; as a rule, active = well fitted cell-killing curve with a large enough effect; inconclusive = small, poorly fitted or top-dose-only effect, or effect the other way; inactive = flat fitted curve, though single readings scatter. This excerpt belongs to a sample that is enriched for actives.
The reply should name one outcome from active, inactive

For orientation, consider the following solved cases.
CS(=O)(=O)N(Cc1nc2sc3c(c2c(=O)[nH]1)CCCC3)C1CCCCC1 = active
CN(Cc1c(F)cccc1Cl)C(=O)COC(=O)Cn1cnc2ccccc2c1=O = inactive

Prompt: For this compound, state the assay outcome: `CCCCC[C@@H]1C=C(C(=O)OCC)[C@H](c2ccccc2)N1S(=O)(=O)c1ccc(C)cc1`
Completion: inactive

Prompt: For this compound, state the assay outcome: Cc1ccccc1CN1C(=O)CSCC1(C)C(=O)Nc1c(C)cccc1C (centres undefined)
Completion: inactive

----------
Test: qHTS assay for MDR1-selective chemotherapeutics: Primary screen using the drug-selected MDR subline cells KB-V1; also: nearly all actives have a fitted effect of over 60% in size
Settings: KB-V1 MDR cells viability, CellTiter-Glo, 72 h; series mostly up to 46.1 µM
In all, about 400,000 compounds went through this assay and about 13,000 (3.2%) were called active. About 18% were inconclusive and are not listed. The call rests on the fitted dose curve; in most records, active means well fitted cell-killing curve with a large enough effect; inconclusive means small, poorly fitted or top-dose-only effect, or effect the other way; inactive means flat fitted curve, though single readings scatter. The sample holds actives, similar compounds and a random draw of the others, so the mix is not that of the screen.
The reply should name one outcome from active, inactive

Prompt: For this compound, state the assay outcome: `O=C(CSc1ccccc1)Nc1cccc(S(=O)(=O)N2CCOCC2)c1`
Completion: inactive

----------
Assay: qHTS assay for MDR1-selective chemotherapeutics: Primary screen using the drug-selected MDR subline cells KB-V1; also: nearly all actives have a fitted effect of over 60% in size; also: potency is read from the fitted curve at half-maximal effect
Details: KB-V1 MDR cells viability, CellTiter-Glo, 72 h; series mostly up to 46.1 µM
The campaign covered roughly 400,000 compounds. About 13,000 (3.2%) were called active. Roughly 18% stayed inconclusive and do not appear here. This excerpt belongs to a sample that is enriched for actives.
Result type: Potency

COC(=O)C[C@@H]1C=C[C@@H](NS(=O)(=O)c2cccc(OC)c2)[C@@H](CO)O1 = inactive
Cc1nn(Cc2ccc(Cl)cc2)c(Cl)c1/C=N/NC(=O)CNc1ccccc1F = 3.26 µM (active)
CCOC(=O)[C@]12CCC=C1N(Cc1ccco1)C(=O)[C@H](CC(=O)N1CCSCC1)C2 = inactive
CCCCc1nc2ccccc2c(NC(=O)CN2CCN(C)CC2)c1CCC = 8.2 µM (active)

Prompt: Find the recorded Potency belonging to `COc1ccc(C)c(Cn2c(-c3nonc3N)nc3ccccc32)c1` and report it.
Completion: 2.31 µM (active)

Prompt: Find the recorded Potency belonging to `O=C(NCCc1ccc(Cl)cc1)c1cccc(N2CCCC2=O)c1` and report it.
Completion: inactive

Prompt: Find the recorded Potency belonging to `OCCNc1ncnc2oc(-c3ccco3)c(-c3ccco3)c12` and report it.
Completion: inactive

Prompt: Find the recorded Potency belonging to `O=C(OCC(=O)N1CCCCCC1)c1ccc(Br)c(S(=O)(=O)N2CCOCC2)c1` and report it.
Completion: inactive

Prompt: Find the recorded Potency belonging to `CCN1CCN(c2c(Cl)cccc2NC(=O)c2ccc(Br)o2)CC1` and report it.
Completion: inactive
